So I've got a bunch of compounds here, and I need their log10 of IC50 values.
target: human TLR2 (Homo sapiens); construct: host or cells: HEK-Blue hTLR2 (HEK-293); test: HEK-Blue hTLR2 antagonism assay (SEAP reporter) with agonist Pam3CSK4 (TLR1/2 agonist); format: cell-based; details: Table A; HEK-Blue hTLR2 cells, ~3×EC50 Pam3CSK4, 18 h, SEAP OD 655 nm, 8-point dilutions
Sequence (O60603 21-784): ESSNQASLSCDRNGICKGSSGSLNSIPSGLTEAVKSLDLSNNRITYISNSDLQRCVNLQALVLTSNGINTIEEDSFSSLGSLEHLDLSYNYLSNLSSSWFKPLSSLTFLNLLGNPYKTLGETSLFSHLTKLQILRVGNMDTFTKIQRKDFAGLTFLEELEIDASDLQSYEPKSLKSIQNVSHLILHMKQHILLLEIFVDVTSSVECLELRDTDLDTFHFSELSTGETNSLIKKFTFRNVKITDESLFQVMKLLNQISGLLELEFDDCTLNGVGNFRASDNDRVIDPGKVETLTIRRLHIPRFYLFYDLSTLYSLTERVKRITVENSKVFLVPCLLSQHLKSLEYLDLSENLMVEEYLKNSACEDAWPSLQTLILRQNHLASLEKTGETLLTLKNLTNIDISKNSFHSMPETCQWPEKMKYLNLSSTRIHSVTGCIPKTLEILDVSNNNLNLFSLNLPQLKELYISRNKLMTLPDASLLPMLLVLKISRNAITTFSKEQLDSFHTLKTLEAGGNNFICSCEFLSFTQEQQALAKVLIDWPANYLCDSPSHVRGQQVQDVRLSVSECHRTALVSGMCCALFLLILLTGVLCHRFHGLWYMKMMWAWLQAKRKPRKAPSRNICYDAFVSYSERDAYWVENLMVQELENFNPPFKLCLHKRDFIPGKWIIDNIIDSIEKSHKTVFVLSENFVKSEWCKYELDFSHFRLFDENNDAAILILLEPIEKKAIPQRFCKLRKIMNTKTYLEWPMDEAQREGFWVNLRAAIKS
// units: µM (pre-log); metric: IC50; scale: log10

The examples below pair each entry with its known result.
> print(dat)
                        structure.as.smiles  value
1      O=Cc1cc(-c2cnn(-c3ccccc3)c2)cc(F)c1O   0.30
2  O=Cc1cc(-c2nsc(-c3cccc(N4CCCC4)c3)n2)cc(F)c1O   0.30
3  Cc1nc(-c2ccc(N3CCCC3)cc2)sc1-c1cc(F)c(O)c(C=O)c1   0.00
4  Oc1c(F)cc(-c2cnn(-c3ccc(N4CCCC4)cc3)c2)cc1/C=N/c1ccccc1  -0.30
5      O=Cc1cc(-c2cnc(-c3ccccc3)s2)cc(F)c1O   0.32

Please give log10 of IC50 for each item listed below.
1. Cc1cc(-c2cnn(-c3ccccc3)c2)cc(O)c1F
2. O=Cc1cc(-c2nnc(-c3ccccc3)s2)cc(F)c1O
3. O=Cc1cc(-c2ccn(-c3ccc(N4CCCC4)cc3)n2)cc(F)c1O
4. CC1(C)CCN(c2ccc(-c3nsc(-c4cc(F)c(O)c(C=O)c4)n3)cc2)C1
5. O=Cc1cc(-c2csc(-c3ccc(N4CCCCC4)nc3)n2)cc(F)c1O
6. O=Cc1cc(-c2cnc(-c3ccc(N4CC5(CCC5)C4)cc3)s2)cc(F)c1O
7. CN1CCN(/N=C/c2cc(-c3cnn(-c4ccc(N5CCCC5)cc4)c3)cc(F)c2O)CC1

1. 1.63
2. 0.96
3. -0.10
4. -0.22
5. -0.22
6. -0.22
7. -0.15

Please give log10 of IC50 for each item listed below.
1. O=Cc1cc(-c2ccn(-c3ccc(N4CCCCC4)cc3)n2)cc(F)c1O
2. O=Cc1cc(-c2cnn(-c3ccc(N4CCCCC4)cc3)c2)cc(F)c1O
3. O=Cc1cc(-c2csc(-c3ccc(N4CCCC4)nc3)n2)cc(F)c1O
4. COc1cc(-c2cnn(Cc3ccccc3)c2)cc(C=O)c1O
5. O=Cc1cc(-c2ccn(-c3ccc(N4CCOCC4)cc3)n2)cc(F)c1O
6. O=Cc1cc(-c2cn(-c3cccc(N4CCCC4)c3)nn2)cc(F)c1O
7. O=Cc1cc(-n2cc(-c3cccc(N4CCCC4)c3)nn2)cc(F)c1O
8. COc1cc(-c2cnn(-c3ccc(F)cc3)c2)cc(C=O)c1O

[-0.10, -0.70, 0.18, 1.02, 0.88, 0.11, -0.15, 1.08]
